- Tested on: PPARg homodimer (NR concentration 180 nM)
- PROTOCOL_TEXT: PBM binding z-score (relative to random genomic background probes); higher = stronger binding; sequences stand for … in GC…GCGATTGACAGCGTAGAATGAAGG
Use 1 as the dividing line for PBM binding z-score, with the line itself on the class 1 side and lower values as class 0.

Past entries and their recorded results:
- SEQUENCE_CODE: "GCAGACCGGTGAAACGCAGGTAACTCAGGGTGGC"
  LABEL_CLASS: "class 0"
- SEQUENCE_CODE: "CCTTACGGGTCACTGACAGGTTCTAGCATTTGGA"
  LABEL_CLASS: "class 1"
- SEQUENCE_CODE: "AGAACGAGGGCAATGGGTTGATAGCACGGGTGGC"
  LABEL_CLASS: "class 1"
- SEQUENCE_CODE: "CGAACTAGGTCAGAACAGGACGGTGAAGGATGAT"
  LABEL_CLASS: "class 0"
- SEQUENCE_CODE: "CCTGGGAGGACAACAGGAGGTCAGAGCTGCCAGA"
  LABEL_CLASS: "class 1"
- SEQUENCE_CODE: "TATATTAGTTGATTAGGGCAACCGAAACAGCGGA"
  LABEL_CLASS: "class 1"
- SEQUENCE_CODE: "AGAAGGAGGGCACGCTGAGTTGATAGCAGAGTAG"
  LABEL_CLASS: "class 0"
- SEQUENCE_CODE: "CGAACTAGGGCAGAACAGGACAGTGAAGGATGAT"
  LABEL_CLASS: "class 0"
- SEQUENCE_CODE: "GCTAGTTGGTCAGTCAAAGGTCACACACCGGTCG"
  LABEL_CLASS: "class 1"
- SEQUENCE_CODE: "ATATGTAGGTTACACCCGGGTCATTCAGGCTATG"
  LABEL_CLASS: "class 1"

Inquiry: PBM binding z-score >= 1 for TCTATTAGTTGAAGGGCATCCGACGAGTCCGTTT ?
Reply text: class 1

Inquiry: PBM binding z-score >= 1 for TCATATAGGTAAATGCTAGGAGAAAGTCCGATCT ?
Reply text: class 0

Inquiry: PBM binding z-score >= 1 for CAAATTAGGTCACAGAGGTCAAAGTCCGTGCGTA ?
Reply text: class 1

Inquiry: PBM binding z-score >= 1 for TTACCAAGGTGAGCTGAGGTAGTTGATCCAACTC ?
Reply text: class 0

Inquiry: PBM binding z-score >= 1 for TCTTGTAGATCAAGCAGATTAAGAAAGCCTGAGT ?
Reply text: class 0

Inquiry: PBM binding z-score >= 1 for GCATATAGGTAATACATGGTGAAAGTCCGATTGT ?
Reply text: class 0

Inquiry: PBM binding z-score >= 1 for GCTGCTAGGTCAGGTTGGACAGCTAACGGGTACG ?
Reply text: class 0

Inquiry: PBM binding z-score >= 1 for CCGAGCAGGCCAGGGTCACTCAAGCATTTCGCTT ?
Reply text: class 1

* * *

- System: PPARg:RXRa 270nM:90nM, anti-RXR (NR concentration 270 nM, RXRa partner concentration 90 nM)
- PROTOCOL_TEXT: PBM binding z-score (relative to random genomic background probes); higher = stronger binding; sequences stand for … in GC…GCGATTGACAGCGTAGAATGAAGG
Property: PBM binding z-score; scope: individual sequences

Inquiry: Name the recorded PBM binding z-score for CCTATTAGTTGACCATAAGGGAAACCGAAGCTCG .
Reply text: 0.639

Inquiry: Name the recorded PBM binding z-score for ATCTCTAGGTAAAGATAGTTCATTGAATGCAAAT .
Reply text: 0.714

Inquiry: Name the recorded PBM binding z-score for GCTTGTAGAACAAGGTTAAGAAAGACTAAGCTAA .
Reply text: 1.67

Inquiry: Name the recorded PBM binding z-score for TTACCAAGGTGAGCTGAGGTCGTTGATCCAACTC .
Reply text: 0.731

* * *

- System: RARg:RXRa (NR concentration 270 nM, RXRa partner concentration 90 nM)
- PROTOCOL_TEXT: PBM binding z-score (relative to random genomic background probes); higher = stronger binding; sequences stand for … in GC…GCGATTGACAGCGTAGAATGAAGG
Property: PBM binding z-score; scope: individual sequences
Quick one: just the number, no unit, thanks!

Observe how each entry below is paired with its result.
- SEQUENCE_CODE: "CCTCGGAGGACAGAAGGTCAGAGGTGTCCGCTTT"
  TARGET_OR_TEST_SYSTEM: "RARg:RXRa (NR concentration 270 nM, RXRa partner concentration 90 nM)"
  PBM binding z-score: 3.28
- SEQUENCE_CODE: "CCTAGTTGGTCAGGAGGTCTCACACCGGATATGA"
  TARGET_OR_TEST_SYSTEM: "RARg:RXRa (NR concentration 270 nM, RXRa partner concentration 90 nM)"
  PBM binding z-score: 0.617
- SEQUENCE_CODE: "AGAATGAGGTTACCAAAGAGCAGGGAAACGCTTG"
  TARGET_OR_TEST_SYSTEM: "RARg:RXRa (NR concentration 270 nM, RXRa partner concentration 90 nM)"
  PBM binding z-score: 1.8
- SEQUENCE_CODE: "CCTGCTACGTCAATGGTCAGCTAAAGCAGCTCGC"
  TARGET_OR_TEST_SYSTEM: "RARg:RXRa (NR concentration 270 nM, RXRa partner concentration 90 nM)"
  PBM binding z-score: -0.424

Inquiry: Name the recorded PBM binding z-score for TCTTGTAGATCAAGCAGTTTAAGAAAGCCTGAGT .
Reply text: -0.283

Inquiry: Name the recorded PBM binding z-score for GCTATTCGTTGAAAGGGCAACCGAATGATTCTCG .
Reply text: 1.23

Inquiry: Name the recorded PBM binding z-score for CAAACTACGTCAAGGTCAAAGTCGGTTTGTGCCA .
Reply text: 4.46

Inquiry: Name the recorded PBM binding z-score for ATCTCTAGGTAAAACTCAGTTCAGTGAAGAACGC .
Reply text: 0.623

* * *

- Tested on: LXRb homodimer (NR concentration 270 nM)
- PROTOCOL_TEXT: PBM binding z-score (relative to random genomic background probes); higher = stronger binding; sequences stand for … in GC…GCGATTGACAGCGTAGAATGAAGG
Property: PBM binding z-score; scope: individual sequences

Observe how each entry below is paired with its result.
- SEQUENCE_CODE: "TTAGACAGGTGAAGGTAACTCAGGTACGCAGTCG"
  PBM binding z-score: -0.0711
- SEQUENCE_CODE: "TAGCCTAGGGCATTGGGCCAGTATAGTACGCATC"
  PBM binding z-score: -0.892
- SEQUENCE_CODE: "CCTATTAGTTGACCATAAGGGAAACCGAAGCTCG"
  PBM binding z-score: 0.904
- SEQUENCE_CODE: "TCGTGTAGATCAAGCAGGTTAAGAAAGCCTGAGT"
  PBM binding z-score: -0.921
- SEQUENCE_CODE: "CGTCAAAGTTCAAGGTAACGTATCAGAAAGCAGC"
  PBM binding z-score: 1.15
- SEQUENCE_CODE: "ACAGACAGGTGACTGAAGGTAACTCAGCTGGACG"
  PBM binding z-score: -1.02
- SEQUENCE_CODE: "ATCTCTAGGTAAAGTGCAGTGAAAGATCGATAGA"
  PBM binding z-score: 0.221
- SEQUENCE_CODE: "TCAGACAGGTGAAGGTTACTCAGGTACGCAGTCG"
  PBM binding z-score: 0.0683
- SEQUENCE_CODE: "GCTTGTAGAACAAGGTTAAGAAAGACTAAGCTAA"
  PBM binding z-score: -0.664
- SEQUENCE_CODE: "CCTACTGGGACATTCAGAGGTCATTGATCATATG"
  PBM binding z-score: 1.06

Inquiry: Name the recorded PBM binding z-score for AGTCAAAGTTCAGGACGAGGTAACATAAAGCACG .
Reply text: 0.512

Inquiry: Name the recorded PBM binding z-score for TTACCAACGTGAGCTGAGGTCGTTGATCCAACTC .
Reply text: -0.442

Inquiry: Name the recorded PBM binding z-score for GCTGGTAGGTCAACTGATGGTCAGCTAAAGCTCG .
Reply text: 0.322

* * *

- System: PPARg:RXRa 30nM:10nM, anti-RXR (NR concentration 30 nM, RXRa partner concentration 10 nM)
- PROTOCOL_TEXT: PBM binding z-score (relative to random genomic background probes); higher = stronger binding; sequences stand for … in GC…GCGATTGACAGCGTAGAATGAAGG
Use 2 as the dividing line for PBM binding z-score, with the line itself on the met side and lower values as not met.

Past entries and their recorded results:
- SEQUENCE_CODE: "ATCTCTAGGTAAGACTCAGTTCATTGAAGAACGC"
  TARGET_OR_TEST_SYSTEM: "PPARg:RXRa 30nM:10nM, anti-RXR (NR concentration 30 nM, RXRa partner concentration 10 nM)"
  LABEL_CLASS: "not met"
- SEQUENCE_CODE: "CCTTACGGGTCAAGGTTACAGCACGGGTGGTACG"
  TARGET_OR_TEST_SYSTEM: "PPARg:RXRa 30nM:10nM, anti-RXR (NR concentration 30 nM, RXRa partner concentration 10 nM)"
  LABEL_CLASS: "met"
- SEQUENCE_CODE: "AGTCAAAGTTCACTAGGTAACGTCAGATTCAGCT"
  TARGET_OR_TEST_SYSTEM: "PPARg:RXRa 30nM:10nM, anti-RXR (NR concentration 30 nM, RXRa partner concentration 10 nM)"
  LABEL_CLASS: "met"
- SEQUENCE_CODE: "CCTAGGAGGACAGAAGGTCAGAGCTGTCCGCTTT"
  TARGET_OR_TEST_SYSTEM: "PPARg:RXRa 30nM:10nM, anti-RXR (NR concentration 30 nM, RXRa partner concentration 10 nM)"
  LABEL_CLASS: "not met"
- SEQUENCE_CODE: "GCTTACGGGACAAAGGTTATAGCATGAATAGAAT"
  TARGET_OR_TEST_SYSTEM: "PPARg:RXRa 30nM:10nM, anti-RXR (NR concentration 30 nM, RXRa partner concentration 10 nM)"
  LABEL_CLASS: "met"

Next, consider the following sequence.
Inquiry: PBM binding z-score >= 2 for CATACAGGGTCAGCTAGGCCAGAATAGGGACGGC ?
Reply text: not met

Values compiled from the supplement of paper PMC6555819.
